Tested on: Wnt pathway (TCF-dependent transcription in HEK293 luciferase reporter cell line with ER-DSH construct)
Test: Cellular assay for Wnt pathway activity (luciferase reporter)
Assay type: cell-based
Conditions: Homo sapiens; Wnt pathway inhibition, HEK293 luciferase reporter cells (ER-DSH, TCF promoter), 24 hours incubation, estrogen-induced
Protocol: 1. Cellular Assay for Wnt Pathway Activity Compounds were tested for their Wnt pathway inhibitory activities using a luciferase reporter cell based assay. […] Compounds, in concentrations from 30 μM down to 1 nM, were incubated for 24 hours on the cells, which were induced for TCF-dependent transcription by the addition of estrogen (10). Luciferase activities were determined using the ONE GLO Luciferase Assay System (Promega) and the ENVISION microplate reader (Perkin Elmer). […]
Examples of molecules with documented IC50 follow.

- molecule: "Cc1ccc(-c2ccc(Oc3cncc(N(C)CCN4CCCCC4=O)n3)cc2)nc1 [Compound 193]"
  IC50: "< 0.2 µM"
- molecule: "COc1ccc(Oc2cncc(N(C)CCN(C)C(=O)Cc3sccc3Cl)n2)cc1 [Compound 53]"
  IC50: "1 to 10 µM"
- molecule: "CN(CCN(C)c1cncc(Oc2ccc(F)cc2)n1)C(=O)CN(C)C(=O)OC(C)(C)C [Compound 285]"
  IC50: "1 to 10 µM"
- molecule: "Cc1ccc(-c2ccc(Oc3cncc(NCCN4CCCCC4=O)n3)cc2)nc1 [Compound 197]"
  IC50: "< 0.2 µM"
- molecule: "CNC(=O)CCCN(C)c1cncc(Oc2ccc(F)cc2)n1 [Compound 189]"
  IC50: "1 to 10 µM"

Query: Recorded IC50 for CC(=O)N(C)CCCc1cncc(Oc2ccc(-c3ccc(N)cn3)cc2F)n1 [Compound 282] , please?
Reply: < 0.2 µM

Query: Recorded IC50 for CN(CCN(C)c1cncc(Oc2ccc(F)cc2)n1)C(=O)CO [Compound 286] , please?
Reply: < 0.2 µM

Query: Recorded IC50 for CC(=O)N(C)CCN(C)c1cncc(Oc2ccc(C(C)C)cc2)n1 [Compound 95] , please?
Reply: < 0.2 µM

Query: Recorded IC50 for O=C1CCCCN1CCNc1cncc(Oc2ccc(-c3ccc(CO)nc3)cc2)n1 [Compound 292] , please?
Reply: < 0.2 µM

* * *

Examples of molecules with documented IC50 follow.
tested on: Wnt pathway (TCF-dependent transcription in HEK293 luciferase reporter cell line with ER-DSH construct); test: Cellular assay for Wnt pathway activity (luciferase reporter); format: cell-based; conditions: Homo sapiens; Wnt pathway inhibition, HEK293 luciferase reporter cells (ER-DSH, TCF promoter), 24 hours incubation, estrogen-induced

// worked examples, IC50 included
- molecule: "CCOC(=O)C(C)c1ccc(Oc2cncc(N(C)CCN(C)C(C)=O)n2)cc1 (centres unmarked)"
  IC50: "200 to 1000 nM"
- molecule: "CS(=O)(=O)c1cncc(-c2ccc(Oc3cncc(NCCC(N)=O)n3)cc2)c1"
  IC50: "≥ 10000 nM"
- molecule: "CC(=O)Nc1ccc(-c2ccc(Oc3cncc(NCCN(C)C(C)=O)n3)cc2)cn1"
  IC50: "200 to 1000 nM"
- molecule: "CC(=O)N(C)CCN(C)c1cncc(Oc2ccc(C(=O)c3ccco3)cc2)n1"
  IC50: "< 200 nM"

Query: Recorded IC50 for CNC(=O)CCN(C)c1cncc(Oc2ccc(F)cc2)n1 , please?
Reply: 200 to 1000 nM

The origin of these recorded values is patent US9493444B2.
